System: SK-MEL-2 melanoma
Assay: NCI tumour cell line growth inhibition, 48 h

compound: O=C(N/N=C/c1ccc(Cl)cc1)c1[nH]c2ccc(Cl)cc2c1-c1ccccc1
TGI: 35.5 µM
--
compound: COc1ccc(NC(=O)CC(=O)N2N=C(N(c3ccccc3)c3ccccc3)CC2c2ccccc2)cc1 (stereo not drawn)
TGI: > 100 µM
--
compound: COc1cc(C2c3cc4c(cc3[C@@H](N(C)C)[C@H]3COC(=O)C23)OCO4)cc(OC)c1O (stereo partly drawn)
TGI: > 100 µM
--
compound: C=CCc1ccccc1C1CC2(C(=O)OC)OC1C(C(=O)OC)=C2C(=O)OC (stereo not drawn)
TGI: > 10 µM
--
compound: Cn1c2ccc(C3=NCCN3)cc2c2cc(C3=NCCN3)ccc21
TGI: > 100 µM
--
compound: O=c1[nH]c2cc([N+](=O)[O-])c(Nc3c4ccccc4nc4ccccc34)c([N+](=O)[O-])c2[nH]1
TGI: 8.6 µM
--
compound: COc1nc(C)cc2c(=O)n(-c3ccccc3)n(CC(O)CN3CCN(c4ccc(Cl)cc4)CC3)c(=O)c12 (stereo not drawn)
TGI: > 50 µM
--
compound: COC(=O)C(=O)C(C(=O)C(N)=O)c1nc2ccc(C(=O)c3ccccc3)cc2[nH]c1=O (stereo not drawn)
TGI: > 100 µM
--
compound: COc1ccc(C2SCC(=O)N2NC(=O)C(C)Oc2ccc(Cl)cc2Cl)cc1 (stereo not drawn)
TGI: > 100 µM
--
compound: CCC[CH2][Sn]1([CH2]CCC)[O]C(=O)c2ccc(N)cc2[O]1
TGI: 0.913 µM
--
compound: CNC(=O)N(CCC#N)CCCN(C(=O)N(C)C)c1ccccc1
TGI: > 100 µM
--
compound: COC(=O)/C=C1\C(=O)C=C2[C@@H]3C[C@H]4C[C@H](CC[C@@]4(C)N21)C3(C)NC(C)=O (stereo partly drawn)
TGI: 38.9 µM
--
compound: CCCCNC(=O)Oc1ccc(/C(=C(/CC)Cc2ccccc2)c2ccc(OCCN3CCCCCC3)cc2)cc1
TGI: > 100 µM
--
compound: COc1cc2c(cc1OC)C(=O)/C(=C/c1ccc(O)cc1)CC2
TGI: > 10 µM
--
compound: Nc1cc2[nH]cnc2c(=O)[nH]1
TGI: 125 µM
--
compound: CC12CC=CCC1CCC1C2CCC2(C)C(c3ccc(=O)oc3)CCC12O (stereo not drawn)
TGI: 0.741 µM
--
compound: Cc1cccc(N=C2NC(=O)C(CC(=O)Nc3ccc(C)cc3C)S2)c1 (stereo not drawn)
TGI: > 100 µM
--
compound: CCOC(=O)Cc1csc(N=Nc2c(O)[nH]c3ccccc23)n1
TGI: > 100 µM

* * *

Tested on: SNB-78 CNS
Test: NCI tumour cell line growth inhibition, 48 h
endpoint.label: TGI

compound: Cc1c(Cl)cccc1NC(=O)/C(Cl)=C(\Cl)C(=O)O
result: 44.7 µM
--
compound: COC(=O)c1ccc(C(=O)OC)c2nc3cc(C)ccc3nc12
result: > 100 µM
--
compound: COc1c(Sc2ccccc2)cc(Sc2ccccc2)c2cccnc12
result: > 100 µM
--
compound: CCCCCCCCCCCCCC(=O)NCC(OCC)OCC
result: > 100 µM
--
compound: O=c1c(O)cccn1C1OC(CO)C(O)C1O (stereo unspecified)
result: > 100 µM
--
compound: CC1=C(/C=C/C(C)=C/C=C/C(C)=C/C=C/C=C(C)/C=C/C=C(C)/C=C/C2=C(C)C(=O)C(O)CC2(C)C)C(C)(C)CC(O)C1=O (stereo unspecified)
result: > 100 µM
--
compound: COc1ccc(N2C(=O)C3c4[nH]c5ccccc5c4C4CCCCCCC4C3C2=O)cc1 (stereo unspecified)
result: > 100 µM
--
compound: COc1ccccc1NC(=O)C1=C(C)NC(C)=C(C(=O)Nc2ccccc2OC)C1c1ccc(N(C)C)cc1
result: 81.1 µM
--
compound: CS(=O)(=O)[O-].CS(=O)(=O)[O-].NC1CCCCC1N.[Pt+4] (stereo unspecified)
result: > 100 µM
--
compound: NC(=O)c1csc(C2CCC(CO)O2)n1 (stereo unspecified)
result: > 100 µM
--
compound: CCOC(=O)c1c(-c2ccccc2)c(C(OC(c2ccccc2)c2c(-c3ccccc3)c(C(=O)OCC)n3ccccc23)c2ccccc2)c2ccccn12 (stereo unspecified)
result: > 100 µM

* * *

Form field: TGI (one value per entry).
Test system: SW-620 colon
Test: NCI tumour cell line growth inhibition, 48 h
endpoint.label: TGI

compound: O=C(O)COc1cc(-c2ccccc2)nc2ccccc12
result: > 100 µM
//
compound: O=C(NCCCCCCO)c1cccc2cc3ccccc3nc12
result: > 100 µM
//
compound: CS(=O)(=O)[O-].CS(=O)(=O)[O-].NC1CCCCC1N.[Pt+4] (centres undefined)
result: > 100 µM
//
compound: COC(=O)[C@]1(C)CCC[C@@]2(C)[C@@H]3C[C@@H]4[C@H]5C[C@@]3(CC[C@@H]21)C[C@@]45C
result: 62.6 µM
//
compound: CC(C(=O)O)c1ccc(-c2ccccc2)c(F)c1 (centres undefined)
result: > 100 µM
//
compound: CC1=NN2C(=N)/C(=C/c3ccccc3)C(=O)N=C2S1
result: > 100 µM
//
compound: CC1CN=C(c2ccc(-c3nc(-c4ccc(C5=NCC(C)N5)cc4)nc(N(C)C)n3)cc2)N1 (centres undefined)
result: 5.56 µM
//
compound: N#Cc1c(N2CCN(c3ccc([N+](=O)[O-])cc3)CC2)[n+](=O)c2ccc(-c3ccc([N+](=O)[O-])cc3)cc2n1[O-]
result: > 100 µM
//
compound: C=C(C)[C@@H]1CC[C@]2(CO)CC[C@]3(C)[C@H](CC[C@@H]4[C@@](C)(CCCN)[C@H](C(=C)C)CC[C@]43C)[C@@H]12
result: 3.51 µM
//
compound: CC[C@]1(O)C[C@@H]2CN(CCc3c([nH]c4ccccc34)[C@@](C(=O)OC)(c3cc4c(cc3OC)N(C)[C@H]3[C@@](O)(C(N)=O)[C@H](O)[C@]5(CC)[C@@H]6C[C@@H]6CN6CC[C@]43[C@@H]65)C2)C1
result: > 33.3 µM
//
compound: C=CCOC1(CC=C)C(=O)OC2C(O)COC21O (centres undefined)
result: > 100 µM
//
compound: COc1c(Sc2ccccc2)cc(Sc2ccccc2)c2cccnc12
result: > 100 µM
//
compound: COc1ccc2ccccc2c1CN1CCOCCOCCN(Cc2c(OC)ccc3ccccc23)CCOCCOCC1
result: > 94.7 µM
//
compound: CCN(CCCl)c1cccc(NC(=O)c2ccc(C(=O)Nc3cccc(CN(C)C)c3)cc2)c1
result: 11.9 µM
//
compound: COc1cc2cc(C(=O)N3CC(CCl)c4c3cc(NC(=O)C(C)Nc3c([N+](=O)[O-])cc(C(=O)NCCN(C)C)cc3[N+](=O)[O-])c3ccccc43)[nH]c2c(OC)c1OC (centres undefined)
result: 0.285 µM
//
compound: NNS(=O)(=O)c1cc(C(=O)O)cc(C(=O)O)c1
result: > 100 µM
//
compound: CCOC(=O)c1c(-c2ccccc2)c(C(OC(c2ccccc2)c2c(-c3ccccc3)c(C(=O)OCC)n3ccccc23)c2ccccc2)c2ccccn12 (centres undefined)
result: > 100 µM
//
compound: CSc1nsc(S/C=C\C(=O)c2ccc(C)cc2)n1
result: 17.8 µM
//
compound: Cc1c(Cl)cccc1NC(=O)/C(Cl)=C(\Cl)C(=O)O
result: 39.9 µM

* * *

Test system: HCT-116 colon
Assay: NCI tumour cell line growth inhibition, 48 h
endpoint.label: TGI

compound: COc1cccc(NC(=O)CC(=O)N2N=C(C)C(N=Nc3ccc(C(=O)O)cc3)C2=O)c1 (centres undefined)
tested.on: HCT-116 colon
endpoint.label: TGI
result: > 100 µM

compound: COc1cc2c(cc1OC)C(=O)/C(=C/c1ccc(O)cc1)CC2
tested.on: HCT-116 colon
endpoint.label: TGI
result: > 10 µM

compound: C[C@]12CCC(=O)C=C1CC[C@@H]1[C@@H]2[C@@H](O)C[C@@]2(C)[C@H]1CC[C@]2(O)C(=O)COC(=O)CCC1CCCC1
tested.on: HCT-116 colon
endpoint.label: TGI
result: > 100 µM

compound: CC(C)(Cc1ccccc1)N1C(=O)N1C(C)(C)Cc1ccccc1
tested.on: HCT-116 colon
endpoint.label: TGI
result: > 100 µM

compound: CCn1c(=O)c2c3ccc(OC(C)=O)cc3[nH]c2c2ccc(OC(C)=O)cc21
tested.on: HCT-116 colon
endpoint.label: TGI
result: 30.1 µM

compound: CCOC(=O)c1c2c(n(Cc3ccccc3)c1C)-c1nc(Cc3ccccc3)[nH]c1C(=O)C2=O
tested.on: HCT-116 colon
endpoint.label: TGI
result: 2.9 µM

compound: CCOC(=O)CCC(NC(=O)OCc1ccccc1)C(=O)NC(CCC(=O)OCC)C(=O)NC(CCC(=O)OCC)C(=O)NNC(=O)OC(C)(C)C (centres undefined)
tested.on: HCT-116 colon
endpoint.label: TGI
result: > 100 µM

compound: O=c1c2cc(Br)ccc2ncn1COCc1ccccc1
tested.on: HCT-116 colon
endpoint.label: TGI
result: > 100 µM

compound: COc1cc2c3c(ncc2c(OC)c1OC)-c1cc2c(cc1C3)OCO2
tested.on: HCT-116 colon
endpoint.label: TGI
result: 36.5 µM
